- System Name: T1, Ala mutant of TA0096, SEQ ID NO: 42
- T1 peptide: EENMDDQWMQDEMEIAY
- Test Protocol: ELISA, coated peptide
Each entry below carries its reported OD 490/630 nm.
Note: the reply should be a number with no unit written.

{"columns": ["Binder", "Measurement"],
 "data": [
  ["G6 (antibody, V domains shown, Chicken variable regions in a mouse chimeric antibody (IgG1); also called anti-PAD4 antibody G6) VH: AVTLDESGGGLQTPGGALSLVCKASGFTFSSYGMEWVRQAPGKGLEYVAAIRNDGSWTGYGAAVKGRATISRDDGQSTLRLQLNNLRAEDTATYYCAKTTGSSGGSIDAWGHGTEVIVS VL: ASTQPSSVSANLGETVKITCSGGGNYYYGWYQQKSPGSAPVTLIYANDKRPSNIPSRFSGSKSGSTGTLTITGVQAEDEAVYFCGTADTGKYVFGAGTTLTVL", 1.87],
  ["H7 (antibody, V domains shown, Chicken variable regions in a mouse chimeric antibody (IgG1); also called anti-PAD4 antibody H7) VH: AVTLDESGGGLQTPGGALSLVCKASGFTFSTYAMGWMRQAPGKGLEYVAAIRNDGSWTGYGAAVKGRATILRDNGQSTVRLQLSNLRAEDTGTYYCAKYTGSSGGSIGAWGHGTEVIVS VL: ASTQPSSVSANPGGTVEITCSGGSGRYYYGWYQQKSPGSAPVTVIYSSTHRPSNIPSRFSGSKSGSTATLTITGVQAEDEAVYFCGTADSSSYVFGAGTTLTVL", 1.85]
]}

Now look at this one.
Data request, read-out OD 490/630 nm, for G9 (antibody, V domains shown, Chicken variable regions in a mouse chimeric antibody (IgG1); also called anti-PAD4 antibody G9) VH: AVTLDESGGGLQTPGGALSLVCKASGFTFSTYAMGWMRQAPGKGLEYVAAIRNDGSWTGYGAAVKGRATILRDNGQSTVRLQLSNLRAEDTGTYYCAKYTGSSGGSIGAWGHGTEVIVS VL: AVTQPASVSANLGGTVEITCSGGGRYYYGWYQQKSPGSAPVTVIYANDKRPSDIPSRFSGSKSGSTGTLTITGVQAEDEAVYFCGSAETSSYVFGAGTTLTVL 1.85
